# Assay Protocol: small-molecule binders of probe aNOTCH2, primary screen, biochemical, small-molecule microarray, 635/667 nm fluorescence (AID 1121);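 also: score merges feature fluorescence read at 667 nm with its signal to noise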
# Conditions: higher = more signal
Label Yes when composite z-score >= -0.2; otherwise No.

compound=CO[C@H]1COC(=O)[C@H](CCSC)NC(=O)CC=C[C@@H](C)COC(=O)[C@@H](OCc2ccccc2)C=C[C@@H]1C label_value=Yes
compound=COCCOC(=O)N1C(=O)[C@@]2(c3cc(C#CCCO)ccc31)[C@H](C(=O)N1CCCCCCC1)[C@H]1C(=O)O[C@H](c3ccccc3)[C@H](c3ccccc3)N1[C@@H]2c1ccc(O)cc1 label_value=Yes
compound=CO[C@H]1COC(=O)[C@@H](C)COC(=O)[C@H](Cc2ccccc2)NC(=O)CC=C[C@H]1C label_value=No
compound="O=C1OCCC=C[C@H]2OC34C=CCN(Cc5ccccc5)C(=O)[C@H]3N(CCO)C(=O)[C@@H]4C12 (stereo partly specified)" label_value=Yes
compound=C[C@@H]1NC(=O)CC=C[C@@H](C)[C@@H]2C=C[C@H](O)[C@@H](COC(=O)[C@H](C)NC(=O)CC=C[C@@H](C)[C@@H]3C=C[C@H](O)[C@@H](COC1=O)O3)O2 label_value=Yes
compound=C=CCOC(=O)[C@@H]1[C@H]2C(=O)O[C@H](c3ccccc3)[C@H](c3ccccc3)N2[C@H](c2ccc(OCCOC(=O)[C@H]3C[C@H]4C(=O)N5CCC[C@H]5C(=O)N4[C@H]3c3ccc(O)cc3)cc2)[C@@]12C(=O)Nc1ccccc12 label_value=Yes

---

# System: Noggin (protein binding on small-molecule microarray)
# Assay Protocol: Noggin binders on small-molecule microarray, primary screen, biochemical, 635/667 nm fluorescence (AID 1095);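 also: score merges 667 nm feature fluorescence with signal to noise over triplicate slides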
# Conditions: 635 nm fluorescence, higher = more signal
Observable: composite z-score

molecule=C[C@]1(C(=O)NCCN2CCOCC2)c2ccccc2C(=O)N(Cc2ccccc2)[C@H]1c1ccc(CO)cc1 quantitative_result=-0.54
molecule=COC(=O)[C@@]1(Cc2ccc(OC)cc2)[C@H]2c3cc(C(=O)N(C)C)n(Cc4ccc(C)c(F)c4F)c3C[C@H]2CN1C(=O)c1ccccc1 quantitative_result=-0.268
molecule="Cc1ccccc1C(O)C1C=CC2C(=O)N(c3ccccc3)C(=O)C2N1Nc1ccc(C#N)cc1 (configuration not stated)" quantitative_result=0.247
molecule=COc1ccc([Si](C)(C)[C@H]2[C@H](CC(=O)N3Cc4ccccc4C[C@H]3CO)O[C@@]3(C(=O)N(Cc4cccc(N5CCOC5=O)c4)c4ccccc43)[C@@H]2C)cc1 quantitative_result=1.22
molecule=CC/C=C/C(=O)N(C[C@@H]1CCCO1)[C@@H]1CC(C(=O)NCCO)=C[C@H](Oc2c(I)cc(CO)cc2OC)[C@H]1O quantitative_result=-0.294
molecule=CCCNC(=O)[C@@H]1c2ccccc2C(=O)N(C2CCCCC2)[C@H]1c1ccc(CO)cc1 quantitative_result=0.771
molecule=O=C1O[C@H](c2ccccc2)[C@H](c2ccccc2)N2[C@H]1[C@@H](C(=O)NC[C@H](O)c1ccccc1)[C@]1(C(=O)Nc3ccc(C#CC4(O)CCCCCC4)cc31)[C@H]2c1ccc(OCCO)cc1 quantitative_result=0.423

---

# System: Wnt5a (protein binding on small-molecule microarray)
# Assay Protocol: Wnt5a binders on small-molecule microarray, primary screen, biophysical, 635/667 nm fluorescence (AID 1142);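 also: fluorescence read at 667 nm with signal to noise per printed feature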
# Conditions: 635 nm fluorescence, higher = more signal
Observable: composite z-score

smiles_str=COc1ccc([C@H]2C[C@H]3C(Br)=C[C@]2(OC)C(=O)[C@]32CO2)cc1 quantitative_result=-0.225
smiles_str=COCCOC(=O)N1C(=O)[C@@]2(c3cc(C#CCCO)ccc31)[C@H](c1ccc(O)cc1)N1[C@H](c3ccccc3)[C@H](c3ccccc3)OC(=O)[C@H]1[C@@H]2C(=O)Nc1nc2ccccc2s1 quantitative_result=0.607
smiles_str=NC(=O)NCC#Cc1ccc2c(c1)[C@]1(C(=O)N2)[C@H](C(=O)N2CCCCCCC2)[C@H]2C(=O)O[C@H](c3ccccc3)[C@H](c3ccccc3)N2[C@@H]1c1ccccc1OCCO quantitative_result=1.58
smiles_str=CCCCO[C@H]1C[C@H]2C(Br)=C[C@@]1(CO)C(=O)[C@]21CO1 quantitative_result=-0.112
smiles_str=CO[C@H]1COC(=O)[C@@H](C)COC(=O)[C@H](Cc2ccccc2)NC(=O)CC=C[C@H]1C quantitative_result=-0.0116
smiles_str=Cc1ccc(S[C@]2(C(=O)NCCCN(C)C)CC(=O)N(Cc3ccccc3)[C@@H]2c2ccc(CO)cc2I)cc1 quantitative_result=-0.278
smiles_str=COC(=O)c1c(CC[C@@H](CO)NC(=O)N[C@H](Cn2cc(-c3cncn3C)nn2)C(C)C)oc(C(C)=O)c1C(=O)OC quantitative_result=0.0781

---

# Tested on: wheat germ agglutinin (Triticum aestivum), Alexa647-labelled
# Assay Protocol: wheat germ agglutinin binders on compound microarrays, profiling panel, artefact control for SMM control-protein annotation, biochemical, small-molecule microarray, 635/667 nm fluorescence (AID 1140);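 also: score merges 667 nm feature emission with signal to noise over triplicate slides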
# Conditions: WGA-A647 binding, 635 nm fluorescence, higher = more signal
// composite z-score lookup, one value per entry
Observable: composite z-score

compound=O=C(CS)NCCCCCCNC(=O)[C@@H]1C[C@@H]2C(=O)N[C@@H](Cc3ccccc3)C(=O)N2[C@@H]1c1ccc(O)cc1 quantitative_result=0.072
compound="C=CCC(OC(C)=O)[C@@H]1[C@@H](N(Cc2cc3ccccc3o2)C(=O)c2ccc(C)cc2)c2cc(OCCCO)ccc2N1C(=O)c1ccc2ccccc2n1 (some centres not stated)" quantitative_result=-0.475
compound=CCCCCCc1nc(-c2cc(C)c(OC)c(C)c2)cc2c1[Si](C(C)C)(C(C)C)O[C@H]2c1ccccc1 quantitative_result=-0.372
compound=CO[C@H]1COC(=O)[C@@H](Cc2ccccc2)NC(=O)[C@@H](C)COC(=O)CC=C[C@@H]1C quantitative_result=-0.744
compound=O=C1c2ccccc2[C@](Cc2ccccc2I)(C(=O)O)[C@H](c2ccc(CO)cc2)N1C1CCCCC1 quantitative_result=1.13
compound=CC(C)(C)OC(=O)CC[C@@]1(C(=O)NCc2ccccc2)N=C(c2ccc(OCCCO)cc2)O[C@@H]1c1ccccc1 quantitative_result=1.53
compound="C=CC[C@@]1(C(=O)NCC(O)CO)N=C(c2ccc(OCCCO)cc2)O[C@@H]1c1ccccc1CN=[N+]=[N-] (some centres not stated)" quantitative_result=0.569
compound=COC(=O)C1=C(C)N(Cc2ccccc2)c2c(C(=O)OC)c(C(=O)OC)c(C(=O)OC)c(=O)n2[C@@H]1c1ccccc1 quantitative_result=0.292
compound=C=C(COC)/C(=C/C[C@@H](OC(=O)c1ccncc1)c1ccc(OCCO)cc1)c1cc(C(=O)OC)ccc1OC quantitative_result=1.3
compound=CO[C@H]1O[C@H](CO)[C@@H](OC(=O)Nc2ccc3c(c2)OCO3)[C@H](OC(=O)Nc2ccccc2)[C@@H]1OC(=O)Nc1ccccc1 quantitative_result=0.497
compound=COCCOC(=O)N1C(=O)[C@@]2(c3cc(C#CC4=CCCCC4)ccc31)[C@H](C(=O)NC[C@H](O)c1ccccc1)[C@H]1C(=O)O[C@H](c3ccccc3)[C@H](c3ccccc3)N1[C@@H]2c1ccccc1OCCO quantitative_result=1.09
compound=COCC(=C=CC[C@H](O)c1ccc(OCCO)cc1)C[C@H](O)c1ccccn1 quantitative_result=-0.32

---

# Assay Protocol: E. coli acrAB mutant growth effects, primary screen, E. coli filamentation inducers, strain DRC39, OD650, 48 h (AID 1179);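 also: screen aims at cell division blockers that make cells filament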
# Conditions: E. coli DRC39 delta-acrAB growth, higher = more signal, called active from +8 up or from −8 down
Observable: z-score

molecule=NC(=O)NCC#Cc1ccc2c(c1)[C@]1(C(=O)N2)[C@H](C(=O)N2CCCCCCC2)[C@H]2C(=O)O[C@H](c3ccccc3)[C@H](c3ccccc3)N2[C@@H]1c1ccccc1OCCO quantitative_result=0.125
molecule=C=CC[C@]1(C(=O)N2CCCCC2)N=C(c2ccc(OCCCO)cc2)O[C@H]1c1ccccc1N=[N+]=[N-] quantitative_result=-0.58
molecule="O=C1NC(=O)C2C1C=CC(C(O)C=Cc1ccc([N+](=O)[O-])cc1)N2Nc1ccccn1 (centres undefined)" quantitative_result=-0.466
molecule=O=C(CS)NCCCCCCNC(=O)[C@@H]1C[C@@H]2C(=O)N[C@@H](Cc3ccccc3)C(=O)N2[C@@H]1c1ccc(O)cc1 quantitative_result=-0.889
molecule=CO[C@H]1O[C@H](CO)[C@@H](OC(=O)CCc2ccccc2)[C@@H]2OC(=O)[C@H](Cc3cccc(Br)c3)C/C=C/C[C@@H](Cc3cccc(Br)c3)C(=O)O[C@@H]12 quantitative_result=1.14
molecule="C[C@@H]1NC(=O)[C@H](Cc2ccccc2)NC(=O)[C@@]23C(=O)N[C@@H](Cc4ccccc4)C2[C@H](C)[C@@]2(C)O[C@H]2C3/C=C/C/C=C\\CNC1=O (some centres undefined)" quantitative_result=-0.514
molecule=C=CCN1C(=O)[C@@]2(O[C@@H](CCn3cc([C@H](O)c4ccccc4)nn3)[C@H]([Si](C)(C)c3ccc(OC)cc3)[C@H]2C)c2cc(N3CCOC3=O)ccc21 quantitative_result=0.391
molecule=O=C(CS)NCCCCCNC(=O)[C@H]1C[C@H]2C(=O)N[C@@H](Cc3ccccc3)C(=O)N2[C@H]1c1ccc(O)cc1 quantitative_result=0.102
molecule=CCC#CCN(Cc1ccccc1Br)[C@H](/C=C/c1ccccc1)[C@@H](O)Cc1ccccc1 quantitative_result=0.994
molecule="O=C1OCC=C[C@H]2OC34C=CCN(Cc5ccccc5)C(=O)[C@H]3N(CCCCCO)C(=O)[C@@H]4[C@@H]12 (some centres undefined)" quantitative_result=1.22
molecule=[N-]=[N+]=NCc1ccccc1C[C@]1(C(N)=O)N=C(c2ccc(OCCCO)cc2)O[C@H]1c1ccccc1CN=[N+]=[N-] quantitative_result=0.258
molecule=COc1ccc([Si](C)(C)[C@H]2[C@H](CCO)O[C@@]3(C(=O)N(Cc4ccccc4)c4ccc(N5C(=O)c6cccc7cccc5c67)cc43)[C@@H]2C)cc1 quantitative_result=2.17
molecule=C=C[C@H](OC)[C@@H](OC(=O)Nc1ccc(SC)cc1)c1ccc(O)c(F)c1 quantitative_result=0.519
molecule=COc1ccc([Si](C)(C)[C@@H]2[C@@H](CCO)O[C@]3(C(=O)N(Cc4ccc(NC(=O)[C@H](C)O)cc4)c4ccccc43)[C@H]2C)cc1 quantitative_result=0.335
